Target: human SCD1 (Homo sapiens)
Construct: expressed in transfected cells; host or cells: yeast strain with OLE1 deleted, plasmid-borne human SCD1 (selected in SD-Ura)
Sequence (O00767 1-359): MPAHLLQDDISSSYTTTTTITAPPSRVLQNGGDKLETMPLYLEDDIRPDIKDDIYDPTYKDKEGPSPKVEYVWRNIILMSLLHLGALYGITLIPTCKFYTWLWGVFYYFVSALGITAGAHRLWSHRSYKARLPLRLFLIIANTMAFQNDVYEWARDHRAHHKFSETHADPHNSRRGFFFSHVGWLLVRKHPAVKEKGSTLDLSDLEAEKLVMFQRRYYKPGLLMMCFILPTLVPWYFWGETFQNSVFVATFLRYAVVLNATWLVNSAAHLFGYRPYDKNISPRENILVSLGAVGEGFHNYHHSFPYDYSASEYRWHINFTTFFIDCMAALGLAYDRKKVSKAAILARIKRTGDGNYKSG
Test: Growth inhibition of yeast strain expressing human SCD1 as sole desaturase (OLE1 deleted), OD600 readout
Format: cell-based
Settings: SCD1 IC50
Note to self: IC50 under 1 µM means 1, ties and anything higher get -1.

INSERT INTO measurements (structure_string, class) VALUES
  ('Cn1cc(C(=O)Nc2ncc(Cc3cccc(F)c3)s2)ccc1=O', 1),
  ('Cn1cc(C(=O)Nc2ccc(Cc3cc(F)cc(C#N)c3)cn2)ccc1=O', -1),
  ('COc1cc(Cc2ccc(NC(=O)c3ccc(=O)n(C)c3)nc2)ccc1F', -1),
  ('Cn1cc(C(=O)Nc2ccc(Cc3ccc4c(c3)COC4)cn2)ccc1=O', -1),
  ('COc1cc(F)cc(Cc2ccc(NC(=O)c3ccc(=O)n(C)c3)nc2)c1', -1),
  ('Cn1cc(C(=O)Nc2ccc(Cc3cc(F)cc(F)c3)cn2)ccc1=O', 1),
  ('Cn1cc(C(=O)Nc2ccc(CC3CCCCC3)cn2)ccc1=O', -1),
  ('Cn1cc(C(=O)Nc2ccc(Cc3ccc(F)c(F)c3)cn2)ccc1=O', -1),
  ('Cn1cc(C(=O)Nc2ccc(Cc3ccc(Cl)cc3)cn2)ccc1=O', 1),
  ('Cn1cc(C(=O)Nc2ccc(Cc3ccc(F)c(Cl)c3)cn2)ccc1=O', -1),
  ('COc1cc(Cl)cc(Cc2ccc(NC(=O)c3ccc(=O)n(C)c3)nc2)c1', -1),
  ('Cn1cc(C(=O)Nc2ccc(Cc3ccc(C(F)(F)F)cc3)cn2)ccc1=O', 1),
  ('Cn1cc(C(=O)Nc2ccc(Cc3cccc(C#N)c3)cn2)ccc1=O', -1),
  ('CC(C)n1nc(C(=O)Nc2ccc(Cc3cccc(F)c3)cn2)ccc1=O', -1),
  ('Cn1cc(C(=O)Nc2ccc(Cc3cccc(F)c3)cn2)ccc1=O', -1),
  ('Cn1cc(C(=O)Nc2ccc(Cc3cc(F)c(F)c(F)c3)cn2)ccc1=O', 1),
  ('Cn1cc(C(=O)Nc2ccc(Cc3ccc(F)cc3)cn2)ccc1=O', 1),
  ('O=C(Nc1ccc(Cc2cccc(Cl)c2)cn1)c1ccc(CO)cn1', 1);
